- Tested on: HCT-116 colon
- EXPERIMENT_NOTES: NCI-60 one-dose screen, 48 h (100 = growth as untreated, 0 = no growth, -100 = all killed)
- EXPERIMENTAL_CONDITIONS: 10 µM unless noted
This is part of a sample that, as a whole, favours compounds with a hit. Of some 83,000 tested, about 20% had one in any assay.
Please use label 1 for growth under 80% and label 0 for everything else, ties included.

[[record]]
compound = "COC(=O)/C=C1/SC(=NCc2ccccc2)N(CCc2c[nH]c3ccccc23)C1=O"
assigned_label = "label 1"

[[record]]
compound = "COc1ccc(-c2cn(Cc3cc4ccccc4s3)nn2)cc1OCCN1CCCCC1"
assigned_label = "label 1"

[[record]]
compound = "O=c1oc2c(cc1-c1ccccc1)c[n+]([O-])c1ccccc21"
assigned_label = "label 0"

[[record]]
compound = "CN(C)CCCNC(=O)c1cncnc1Nc1ccc2c(ccn2Cc2cccc(F)c2)c1"
assigned_label = "label 1"

[[record]]
compound = "CN1C(=O)N2CN3CCCN(C3)CN3C(=S)NC1C23 (stereo unspecified)"
assigned_label = "label 0"

[[record]]
compound = "OC1(c2ccccc2)c2ccccc2N(c2ccccc2)c2ccc(Cl)cc21 (stereo unspecified)"
assigned_label = "label 1"

[[record]]
compound = "O=C(CCCCCCCC(=O)N1CCCCC1)N1CCCCC1"
assigned_label = "label 0"

[[record]]
compound = "O=C1/C(=C/c2ccccn2)SC(=S)N1N1CCOCC1"
assigned_label = "label 0"

[[record]]
compound = "CNC(=O)Nc1ccc(-c2ccc3ncnc(Nc4cccc(Cl)c4)c3c2)cc1"
assigned_label = "label 1"

[[record]]
compound = "O=Nc1ccc(NC(=O)Nc2ccc([N+](=O)[O-])cc2)cc1"
assigned_label = "label 0"

[[record]]
compound = "CC(O)Cc1c[nH]c(=O)[nH]c1=O (stereo unspecified)"
assigned_label = "label 0"

